- EXPERIMENTAL SYSTEM: T1, recombinant human IGSF8 extracellular domain tagged by a human Fc region (IGSF8-hFc) (human, UniProt Q969P0 28-579, biotin label in Examples 17, 18 and 28 (site not given))
- T1 construct: also called IGSF8-Fc fusion protein; IGSF8-hFc-biotin; not shown: human Fc region
- T1 sequence: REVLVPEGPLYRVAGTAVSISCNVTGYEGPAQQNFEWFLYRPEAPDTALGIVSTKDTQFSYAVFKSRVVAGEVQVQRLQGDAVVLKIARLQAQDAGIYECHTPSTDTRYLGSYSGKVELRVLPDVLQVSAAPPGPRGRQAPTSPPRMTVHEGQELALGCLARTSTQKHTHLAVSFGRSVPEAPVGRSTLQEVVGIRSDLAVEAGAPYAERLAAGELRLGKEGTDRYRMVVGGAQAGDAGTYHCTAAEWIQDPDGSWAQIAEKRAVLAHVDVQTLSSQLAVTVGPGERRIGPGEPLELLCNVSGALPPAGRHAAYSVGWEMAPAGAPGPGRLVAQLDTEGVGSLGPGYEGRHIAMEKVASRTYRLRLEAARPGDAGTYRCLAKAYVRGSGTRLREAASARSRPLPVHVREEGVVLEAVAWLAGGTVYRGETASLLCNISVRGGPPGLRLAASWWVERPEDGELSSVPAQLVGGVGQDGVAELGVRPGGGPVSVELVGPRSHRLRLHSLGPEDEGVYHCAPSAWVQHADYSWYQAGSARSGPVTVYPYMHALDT
- EXPERIMENT NOTES: SPR, Ab captured
Provide the recorded koff for the entries that follow.
Answers without a unit are incomplete; give the number and then its unit.

BINDER: L1-05 (antibody, V domains shown) VH: QVQLVESGGGVVQPGRSLRLSCAASGFTFSTYGMHWVRQAPGKGLEWVAVIWDDGSYKYYGDSVKGRFTISRDNSKNTLYLQMNSLRAEDTAVYYCARDGSGWGYAFDIWGQGTMVTVSS VL: DIQLTQSPSSLSASVGDRVTITCQASQDITKGLNWYQHKPGKAPNPLVFDAANLETGVPPRFSATGSGTDFSLTITSLQPEDFATYYCQQYDSFPYTFGQGTRLDIK
MEASUREMENT NAME: koff
REPORTED RESULT: 0.00148 s⁻¹

// for each binder below, give its koff
1. L1-07 (antibody, V domains shown) VH: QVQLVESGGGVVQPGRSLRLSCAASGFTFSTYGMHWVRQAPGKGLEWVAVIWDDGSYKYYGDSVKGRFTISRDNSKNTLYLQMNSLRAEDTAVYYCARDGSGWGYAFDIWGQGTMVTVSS VL: DIQLTQSPSSLSASVGDRVTITCQASQDIEWWLNWYQHKPGKAPNPLVFDAANLETGVPPRFSATGSGTDFSLTITSLQPEDFATYYCQQYDSFPYTFGQGTRLDIK
2. L1-03 (antibody, V domains shown) VH: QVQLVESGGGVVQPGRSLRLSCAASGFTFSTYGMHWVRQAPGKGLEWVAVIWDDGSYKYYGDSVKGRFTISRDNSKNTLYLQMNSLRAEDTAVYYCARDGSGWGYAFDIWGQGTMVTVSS VL: DIQLTQSPSSLSASVGDRVTITCQASQDISEYLNWYQHKPGKAPNPLVFRSPNLETGVPPRFSATGSGTDFSLTITSLQPEDFATYYCQQYDSFPYTFGQGTRLDIK
3. L1-16 (antibody, V domains shown) VH: QVQLVESGGGVVQPGRSLRLSCAASGFTFSTYGMHWVRQAPGKGLEWVAVIWDDGSYKYYGDSVKGRFTISRDNSKNTLYLQMNSLRAEDTAVYYCARDGSGWGYAFDIWGQGTLVTVSS VL: DIQMTQSPSSLSASVGDRVTITCQASQDIGPWLNWYQQKPGKAPKLLIYGSPNLETGVPSRFSGSGSGTDFTFTISSLQPEDIATYYCQQYDSFPYTFGQGTKVEIK

1: 0.000445 s⁻¹; 2: 0.00172 s⁻¹; 3: 0.00111 s⁻¹

For every item below, please supply its koff.
1. L2VH-S50A (antibody, V domains shown) VH: EVQLVESGGGLEQPGGSLRLSCAGSGFTFRDYAMTWVRQAPGKGLEWVSAISGSGGNTYYADSVKGRFTISRDNSKNTLYLQMNSLRAEDTAIYYCARGEYSSGWPSWFDPWGQGTLVTVSS VL: EIVLTQSPSSLSASVGDRVTISCRASRTVGTFLNWYQQRPGKPPQALILGVSILEGGVSSRFSGAGSGTEFSLTISSLQPEDIGTYYCQQSHDVPRTFGQGTKVDLR
2. L2VH-D31S (antibody, V domains shown) VH: EVQLVESGGGLEQPGGSLRLSCAGSGFTFRSYAMTWVRQAPGKGLEWVSSISGSGGNTYYADSVKGRFTISRDNSKNTLYLQMNSLRAEDTAIYYCARGEYSSGWPSWFDPWGQGTLVTVSS VL: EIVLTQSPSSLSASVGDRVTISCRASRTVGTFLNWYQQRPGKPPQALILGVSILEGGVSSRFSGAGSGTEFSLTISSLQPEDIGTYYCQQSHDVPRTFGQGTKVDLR
3. L1VH-D53Y (antibody, V domains shown) VH: QVQLVESGGGVVQPGRSLRLSCAASGFTFSTYGMHWVRQAPGKGLEWVAVIWYDGSYKYYGDSVKGRFTISRDNSKNTLYLQMNSLRAEDTAVYYCARDGSGWGYAFDIWGQGTMVTVSS VL: DIQLTQSPSSLSASVGDRVTITCQASQDISEYLNWYQHKPGKAPNPLVFDAANLETGVPPRFSATGSGTDFSLTITSLQPEDFATYYCQQYDSFPYTFGQGTRLDIK

1: 0.000486 s⁻¹; 2: 0.00567 s⁻¹; 3: 0.0168 s⁻¹
